# MEASURED TARGET: GPVI (platelet glycoprotein VI) (Homo sapiens, UniProt Q9HCN6)
# Construct: native receptor on washed human platelets
# Sequence (Q9HCN6 21-339): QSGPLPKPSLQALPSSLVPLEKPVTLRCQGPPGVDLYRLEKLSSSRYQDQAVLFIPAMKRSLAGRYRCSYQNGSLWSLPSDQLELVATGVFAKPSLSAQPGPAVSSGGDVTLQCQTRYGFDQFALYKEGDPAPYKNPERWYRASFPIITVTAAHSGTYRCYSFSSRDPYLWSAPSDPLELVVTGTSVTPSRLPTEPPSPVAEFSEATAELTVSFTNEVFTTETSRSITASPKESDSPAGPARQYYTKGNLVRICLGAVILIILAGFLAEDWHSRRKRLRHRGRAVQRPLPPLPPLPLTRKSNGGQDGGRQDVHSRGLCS
# EXPERIMENT NOTES: Inhibition of CRP-XL/collagen-induced Ca2+ release and aggregation in washed human platelets; rightward shift of CRP-XL curve
# APPLIED CONDITIONS: read-out: Ca^2+ RELEASE / CRP
PROPERTY MEASURED: pIC50
pIC50 here: minus log base 10 of the concentration, concentration in moles per litre.

stdin: Could you tell me which pIC50 is on file for "CN(C)CCCSc1ccccc1NC(=O)/C=C/c1ccccc1" ?
stdout: 4.40
